The following compounds are listed with their measured IC50 values.
# assayed system: human capsaicin receptor (Homo sapiens, UniProt Q8NER1)
# Construct: transfected with the pBK-CMV expression construct encoding the full length human capsaicin receptor
# Sequence (Q8NER1 whole entry): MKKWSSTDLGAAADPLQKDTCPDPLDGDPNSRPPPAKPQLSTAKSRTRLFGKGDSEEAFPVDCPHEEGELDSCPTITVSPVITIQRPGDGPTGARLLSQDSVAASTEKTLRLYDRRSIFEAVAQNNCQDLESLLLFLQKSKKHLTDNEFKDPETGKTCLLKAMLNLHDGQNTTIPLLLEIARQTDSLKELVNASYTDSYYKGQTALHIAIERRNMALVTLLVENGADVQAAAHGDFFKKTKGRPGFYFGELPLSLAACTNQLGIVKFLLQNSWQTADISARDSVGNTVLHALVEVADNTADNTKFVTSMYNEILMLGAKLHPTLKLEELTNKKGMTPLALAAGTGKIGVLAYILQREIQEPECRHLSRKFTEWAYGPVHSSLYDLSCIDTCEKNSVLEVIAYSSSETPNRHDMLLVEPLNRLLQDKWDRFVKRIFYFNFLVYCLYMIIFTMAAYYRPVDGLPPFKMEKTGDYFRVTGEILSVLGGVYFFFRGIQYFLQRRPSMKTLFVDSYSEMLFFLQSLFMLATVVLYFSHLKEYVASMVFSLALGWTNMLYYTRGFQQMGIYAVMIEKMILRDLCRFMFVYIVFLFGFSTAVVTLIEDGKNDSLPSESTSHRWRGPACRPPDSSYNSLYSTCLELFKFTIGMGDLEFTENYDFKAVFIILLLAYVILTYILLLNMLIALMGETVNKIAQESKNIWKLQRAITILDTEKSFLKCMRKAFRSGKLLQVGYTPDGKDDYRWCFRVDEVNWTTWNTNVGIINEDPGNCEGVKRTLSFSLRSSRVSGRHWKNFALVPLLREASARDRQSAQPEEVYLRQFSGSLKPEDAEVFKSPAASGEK
# protocol description: Calcium mobilization assay, determination of antagonist activity
# conditions used: cells expressing human capsaicin receptor, capsaicin-induced fluorescence response, Example 6

Below, each entry is followed by its recorded IC50 result.
* C[C@@H]1CN(Cc2nc(Nc3ccc(C(F)(F)F)cc3)c3cnn(-c4ccccc4Cl)c3n2)C[C@H](C)O1 | ≤ 1000 nM
* CC(C)(C)c1ccc(Nc2ncnc3c2ncn3-c2cccc(Cl)c2)cc1 | ≤ 1000 nM
* CC(C)COCc1nc(Nc2ccc(C(C)C)cc2)c2cnn(-c3ccccc3Cl)c2n1 | ≤ 1000 nM
* Cc1nc2c(Nc3ccc(C(C)(C)C)cc3)ncnc2n1-c1ccccc1Cl | ≤ 1000 nM
* FC(F)(F)c1ccc(Nc2ncnc3c2cnn3-c2ncccc2Cl)cc1 | ≤ 1000 nM
* CC(C)COCc1nc(Nc2ccc(C(C)(C)C)cc2)c2cnn(-c3ccccc3Cl)c2n1 | ≤ 1000 nM
* O=S(=O)(c1ccc(Nc2ncnc3c2cnn3-c2ccccc2Cl)cc1)C(F)(F)F | ≤ 1000 nM

Record `CC(C)(C#N)c1ccc(Nc2ncnc3c2ncn3-c2cccc(Cl)c2)cc1` , field IC50: ≤ 1000 nM
